Reference for the values: patent US6342508B1

Study target: TACE (Homo sapiens, UniProt P78536)
Construct: purchased Immunex
Sequence (P78536 215-824): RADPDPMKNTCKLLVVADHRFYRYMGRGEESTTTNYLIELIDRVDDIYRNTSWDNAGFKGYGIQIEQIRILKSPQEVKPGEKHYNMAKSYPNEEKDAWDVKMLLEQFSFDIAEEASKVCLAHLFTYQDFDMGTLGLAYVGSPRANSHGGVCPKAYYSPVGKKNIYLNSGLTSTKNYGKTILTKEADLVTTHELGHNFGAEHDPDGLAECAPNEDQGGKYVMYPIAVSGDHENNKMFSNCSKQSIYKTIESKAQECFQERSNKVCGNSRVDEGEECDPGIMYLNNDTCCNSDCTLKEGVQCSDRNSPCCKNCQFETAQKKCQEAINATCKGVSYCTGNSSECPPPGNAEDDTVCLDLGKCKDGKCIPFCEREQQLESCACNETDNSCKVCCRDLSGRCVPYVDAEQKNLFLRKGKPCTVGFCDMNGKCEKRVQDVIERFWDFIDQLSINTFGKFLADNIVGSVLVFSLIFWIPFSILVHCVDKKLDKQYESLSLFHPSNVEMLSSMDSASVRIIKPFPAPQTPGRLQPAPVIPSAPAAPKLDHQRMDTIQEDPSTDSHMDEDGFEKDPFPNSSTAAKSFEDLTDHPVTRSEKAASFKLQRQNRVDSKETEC
Assay info: Procedure for Measuring TACE Inhibition (fluorescent peptidyl substrate)
Assay type: biochemical
Assay conditions: 1 micromolar
Readout kind: TACE % inhibition at 1 micromolar (%)

CCN(CC)CCOc1cccc(CC(C)(C(=O)NO)S(=O)(=O)c2ccc(OC)cc2)c1 (stereo not shown)	41
Cc1occc1S(=O)(=O)C(C)(Cc1ccccc1)C(=O)NO (stereo not shown)	46.6

P = Cc1occc1S(=O)(=O)C(C)(Cc1ccc(OCCN2CCCCC2)cc1)C(=O)NO (stereo not shown)
Q = CC(Cc1ccccc1)(C(=O)NO)S(=O)(=O)c1cccs1 (stereo not shown)
Enquiry: Parameter check: reported TACE % inhibition at 1 micromolar is higher for which label, P or Q ? Refer to your chosen entry by its label in the reply.
Return: Q
